The reported numbers originate from paper PMC4266358.

Target: mA3AR (Mus musculus, UniProt Q61618)
Sequence (Q61618 whole entry): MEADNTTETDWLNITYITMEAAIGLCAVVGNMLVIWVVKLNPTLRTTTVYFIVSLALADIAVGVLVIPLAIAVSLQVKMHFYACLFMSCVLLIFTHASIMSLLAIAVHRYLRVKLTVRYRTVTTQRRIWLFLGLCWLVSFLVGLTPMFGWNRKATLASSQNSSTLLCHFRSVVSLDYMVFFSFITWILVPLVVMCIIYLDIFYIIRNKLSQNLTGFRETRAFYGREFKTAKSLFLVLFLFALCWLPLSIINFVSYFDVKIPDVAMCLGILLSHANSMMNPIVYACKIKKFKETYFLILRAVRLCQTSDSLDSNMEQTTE
assay.readout: pIC50
One number for each entry, as −log10 of the molar value.

Query string: I'd like to know its pIC50. The compound in question is CNC(=O)[C@@]12C[C@@H]1[C@@H](n1cnc3c(NC)nc(C#Cc4cccs4)nc31)[C@H](O)[C@@H]2O [Compound 32]
Result string: 7.22

----------
Molecular target: hA3AR (Homo sapiens)
Sequence (P0DMS8 whole entry): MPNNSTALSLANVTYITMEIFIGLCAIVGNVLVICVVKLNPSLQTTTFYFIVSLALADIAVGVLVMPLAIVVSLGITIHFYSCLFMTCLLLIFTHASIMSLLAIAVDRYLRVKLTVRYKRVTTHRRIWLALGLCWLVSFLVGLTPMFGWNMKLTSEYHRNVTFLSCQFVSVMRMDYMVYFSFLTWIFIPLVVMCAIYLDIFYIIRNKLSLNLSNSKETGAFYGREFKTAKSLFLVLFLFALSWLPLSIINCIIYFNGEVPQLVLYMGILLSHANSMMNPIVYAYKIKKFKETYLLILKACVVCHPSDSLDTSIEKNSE
Experiment: Radioligand binding at hA3AR, CHO cell membranes, [125I]I-AB-MECA
Conditions: read-out: hA3AR Ki, n = 3–4
assay.readout: Ki (nM)
One number for each entry, in nM.

Query string: Look up Ki: CNC(=O)[C@@]12C[C@@H]1[C@@H](n1cnc3c(NC)nc(C#C[c-]4cccc4)nc31)[C@H](O)[C@@H]2O.[Fe+2].c1cc[cH-]c1
Result string: 2.7
